// values below are reported IC50
# Test system: S. Typhi PhoP-promoter GFP reporter, fluorescence, 4 h
# procedureText: PhoP regulon inhibitor project modified counter assay, GFP fluorescence readout, dose response (AID 1985)

>  <compound>
O=C(Nc1cccc(N=Cc2cc(Cl)cc(Br)c2O)c1)c1ccco1

>  <target>
S. Typhi PhoP-promoter GFP reporter, fluorescence, 4 h

>  <IC50>
94.3 µM

$$$$
>  <compound>
Cc1cc(C)n(-c2nc(NCCN(C)C)c3c4c(sc3n2)CCCC4)n1

>  <target>
S. Typhi PhoP-promoter GFP reporter, fluorescence, 4 h

>  <IC50>
99.4 µM

$$$$
>  <compound>
CC(C)Oc1ccc(Cc2cnc(N)nc2N)cc1

>  <target>
S. Typhi PhoP-promoter GFP reporter, fluorescence, 4 h

>  <IC50>
50.3 µM

$$$$
>  <compound>
CC[C@H]1OC(=O)[C@H](C)[C@@H](O[C@H]2C[C@@](C)(OC)[C@@H](O)[C@H](C)O2)[C@H](C)[C@@H](O[C@@H]2O[C@H](C)C[C@H](N(C)C)[C@H]2O)[C@](C)(O)C[C@@H](C)[C@@H]2N[C@@H](COCCOC)O[C@H]([C@H]2C)[C@]1(C)O

>  <target>
S. Typhi PhoP-promoter GFP reporter, fluorescence, 4 h

>  <IC50>
45.4 µM

$$$$
>  <compound>
O=C(c1ccc([N+](=O)[O-])o1)N1CCOCC1

>  <target>
S. Typhi PhoP-promoter GFP reporter, fluorescence, 4 h

>  <IC50>
24.4 µM

$$$$
>  <compound>
O=C(Nc1ccc(-c2nc3ccccc3[nH]2)cc1)c1ccco1

>  <target>
S. Typhi PhoP-promoter GFP reporter, fluorescence, 4 h

>  <IC50>
87 µM

$$$$
>  <compound>
CN1CCN(C(c2ccc(C(F)(F)F)cc2)c2ccc3cccnc3c2O)CC1 (stereo not given)

>  <target>
S. Typhi PhoP-promoter GFP reporter, fluorescence, 4 h

>  <IC50>
34.9 µM

$$$$
>  <compound>
O=c1[nH]c2ccccc2n2c(=S)[nH]nc12

>  <target>
S. Typhi PhoP-promoter GFP reporter, fluorescence, 4 h

>  <IC50>
68.5 µM

$$$$
>  <compound>
NC[C@@H]1O[C@H](C23CC4CC(CC(C4)C2)C3)Cc2c1ccc(O)c2O

>  <target>
S. Typhi PhoP-promoter GFP reporter, fluorescence, 4 h

>  <IC50>
39.8 µM

$$$$
>  <compound>
COc1ccc(C(C[N+](=O)[O-])C2(c3ccc(OC)c(OC)c3)C(=O)c3ccccc3C2=O)cc1 (stereo not given)

>  <target>
S. Typhi PhoP-promoter GFP reporter, fluorescence, 4 h

>  <IC50>
8.15 µM

$$$$
>  <compound>
CN1CCN(Cc2cc(COCc3ccccc3)c3cccnc3c2O)CC1

>  <target>
S. Typhi PhoP-promoter GFP reporter, fluorescence, 4 h

>  <IC50>
62.9 µM

$$$$
>  <compound>
CN1C(=O)NC(c2ccc(O)cc2)C(C(=O)c2cccs2)C1(O)C(F)(F)F (stereo not given)

>  <target>
S. Typhi PhoP-promoter GFP reporter, fluorescence, 4 h

>  <IC50>
19.9 µM

$$$$
>  <compound>
COc1cccc(CNCCc2c[nH]c3ccccc23)c1OCc1ccccc1

>  <target>
S. Typhi PhoP-promoter GFP reporter, fluorescence, 4 h

>  <IC50>
150 µM

$$$$
>  <compound>
C=CCn1c(NS(=O)(=O)c2ccccc2)c(S(=O)(=O)c2ccc(C)cc2)c2nc3ccccc3nc21

>  <target>
S. Typhi PhoP-promoter GFP reporter, fluorescence, 4 h

>  <IC50>
135 µM

$$$$
>  <compound>
CCCCOc1ccc(C(=O)NNC(=S)NC(=O)CC)cc1

>  <target>
S. Typhi PhoP-promoter GFP reporter, fluorescence, 4 h

>  <IC50>
38.9 µM

$$$$
>  <compound>
CCN1CCc2c(C#N)c(NCc3ccccc3)nc(NCCO)c2C1

>  <target>
S. Typhi PhoP-promoter GFP reporter, fluorescence, 4 h

>  <IC50>
140 µM

$$$$
>  <compound>
CN1CCN(c2cc3c(cc2F)c(=O)c(C(=O)O)cn3CCF)CC1

>  <target>
S. Typhi PhoP-promoter GFP reporter, fluorescence, 4 h

>  <IC50>
0.444 µM

$$$$
>  <compound>
COc1cccc(Nc2nc(NCC3CCCO3)c3ccccc3n2)c1 (stereo not given)

>  <target>
S. Typhi PhoP-promoter GFP reporter, fluorescence, 4 h

>  <IC50>
34.2 µM

$$$$
>  <compound>
CCCCOc1ccc(NC2=NC3(CCCC3)N=C(N)N2)cc1

>  <target>
S. Typhi PhoP-promoter GFP reporter, fluorescence, 4 h

>  <IC50>
72.9 µM

$$$$
>  <compound>
O=C(CN1CC[n+]2c(-c3cccs3)csc21)c1ccc(-c2ccccc2)cc1

>  <target>
S. Typhi PhoP-promoter GFP reporter, fluorescence, 4 h

>  <IC50>
33.7 µM

$$$$
>  <compound>
Cc1nc2ccccn2c1C(=O)N/N=C/c1ccc([N+](=O)[O-])o1

>  <target>
S. Typhi PhoP-promoter GFP reporter, fluorescence, 4 h

>  <IC50>
33.5 µM

$$$$
>  <compound>
Cc1ccccc1C(=O)Nc1cccc(C(=O)N/N=C/c2cc(Cl)cc([N+](=O)[O-])c2O)c1

>  <target>
S. Typhi PhoP-promoter GFP reporter, fluorescence, 4 h

>  <IC50>
33.8 µM

$$$$
>  <compound>
N#C/C(N=Nc1ccccc1O)=N\Nc1ccccc1O

>  <target>
S. Typhi PhoP-promoter GFP reporter, fluorescence, 4 h

>  <IC50>
9.47 µM

$$$$
>  <compound>
Cc1cccc(C(=O)NNC(=S)NC(=O)c2cccs2)c1

>  <target>
S. Typhi PhoP-promoter GFP reporter, fluorescence, 4 h

>  <IC50>
50.1 µM

$$$$
>  <compound>
CCCCCCCCCCOC(=O)Cn1c(COc2ccc(Cl)cc2)[n+](C)c2ccccc21

>  <target>
S. Typhi PhoP-promoter GFP reporter, fluorescence, 4 h

>  <IC50>
15.7 µM

$$$$
>  <compound>
O=C(/C=C/c1ccc(F)cc1)NC(=S)NNC(=O)c1cnccn1

>  <target>
S. Typhi PhoP-promoter GFP reporter, fluorescence, 4 h

>  <IC50>
20.4 µM

$$$$
>  <compound>
Oc1ccc(COCc2ccccc2)c2cccnc12

>  <target>
S. Typhi PhoP-promoter GFP reporter, fluorescence, 4 h

>  <IC50>
47.8 µM

$$$$
>  <compound>
Nc1c(Cl)ncnc1N/N=C/c1ccccn1

>  <target>
S. Typhi PhoP-promoter GFP reporter, fluorescence, 4 h

>  <IC50>
33.4 µM

$$$$
>  <compound>
O=C(NC(=S)NNC(=O)c1ccccc1O)c1ccco1

>  <target>
S. Typhi PhoP-promoter GFP reporter, fluorescence, 4 h

>  <IC50>
23.8 µM

$$$$
>  <compound>
COc1c(N2CCN(C(=S)Nc3ccccc3F)C(C)C2)c(F)cc2c(=O)c(C(=O)O)cn(C3CC3)c12 (stereo not given)

>  <target>
S. Typhi PhoP-promoter GFP reporter, fluorescence, 4 h

>  <IC50>
0.441 µM

$$$$
>  <compound>
CC(C(=O)c1ccc(-c2ccccc2)cc1)[n+]1cccc(NC(=O)c2ccccc2)c1 (stereo not given)

>  <target>
S. Typhi PhoP-promoter GFP reporter, fluorescence, 4 h

>  <IC50>
36.3 µM

$$$$
>  <compound>
O=c1c2ccccc2nc(-c2cccc(Cl)c2)n1O

>  <target>
S. Typhi PhoP-promoter GFP reporter, fluorescence, 4 h

>  <IC50>
113 µM

$$$$
>  <compound>
N#Cc1c(-c2ccccc2)ccn(Cc2cccc(Cl)c2)c1=O

>  <target>
S. Typhi PhoP-promoter GFP reporter, fluorescence, 4 h

>  <IC50>
21.2 µM

$$$$
>  <compound>
Cc1nonc1C(=O)N/N=C/c1ccc([N+](=O)[O-])o1

>  <target>
S. Typhi PhoP-promoter GFP reporter, fluorescence, 4 h

>  <IC50>
24.7 µM

$$$$
>  <compound>
O=[N+]([O-])c1cc(Cl)c2cccnc2c1O

>  <target>
S. Typhi PhoP-promoter GFP reporter, fluorescence, 4 h

>  <IC50>
1.46 µM

$$$$
>  <compound>
c1ccc(Nc2ccnc(Nc3ccccc3)n2)cc1

>  <target>
S. Typhi PhoP-promoter GFP reporter, fluorescence, 4 h

>  <IC50>
67.2 µM

$$$$
>  <compound>
CC(=O)NNC(=S)NC(=O)c1ccccc1

>  <target>
S. Typhi PhoP-promoter GFP reporter, fluorescence, 4 h

>  <IC50>
22.7 µM

$$$$
>  <compound>
CNCc1c(OCc2ccccc2F)ccc2ccccc12

>  <target>
S. Typhi PhoP-promoter GFP reporter, fluorescence, 4 h

>  <IC50>
127 µM

$$$$
>  <compound>
O=C(c1cnn(C(=O)COc2ccccc2F)c1)c1cc(F)ccc1O

>  <target>
S. Typhi PhoP-promoter GFP reporter, fluorescence, 4 h

>  <IC50>
83.3 µM

$$$$
>  <compound>
NC1=NC[C@H](c2ccccc2)N1CCCCC1CCCCC1

>  <target>
S. Typhi PhoP-promoter GFP reporter, fluorescence, 4 h

>  <IC50>
38.5 µM

$$$$
>  <compound>
CCc1ccc(NC(=O)C[n+]2cc(-c3ccc(C)cc3)n3c2CCC3)cc1

>  <target>
S. Typhi PhoP-promoter GFP reporter, fluorescence, 4 h

>  <IC50>
69.8 µM

$$$$
>  <compound>
Cc1ccc(Nc2nc(NCCO)c3ccccc3n2)cc1C

>  <target>
S. Typhi PhoP-promoter GFP reporter, fluorescence, 4 h

>  <IC50>
80.8 µM

$$$$
>  <compound>
CCCCOc1ccc(NC2=NC3(CCCCC3)N=C(N)N2)cc1

>  <target>
S. Typhi PhoP-promoter GFP reporter, fluorescence, 4 h

>  <IC50>
20.1 µM

$$$$
>  <compound>
CCc1cccc2c(C(=O)COC(=O)c3ccc([N+](=O)[O-])s3)c[nH]c12

>  <target>
S. Typhi PhoP-promoter GFP reporter, fluorescence, 4 h

>  <IC50>
10.4 µM

$$$$
>  <compound>
O=c1[nH]c(=S)ccn1C1OC(CO)C(O)C1O (stereo not given)

>  <target>
S. Typhi PhoP-promoter GFP reporter, fluorescence, 4 h

>  <IC50>
1.74 µM

$$$$

Reference source for all entries: PubChem BioAssay AID1985
